Origin of values: PubChem BioAssay (NCI)

# System: MDA-MB-435
# TEST_DESCRIPTION: NCI tumour cell line growth inhibition, 48 h
ENDPOINT_NAME: TGI (µM)
Numbers only, in µM.

{"COMPOUND": "CC([C@H]1CCC2C3CCC4C[C@@H](N)CC[C@]4(C)C3CC[C@@]21C)N(C)C (some centres not stated)", "ENDPOINT_NAME": "TGI", "UNITS_TEXT": "µM", "MEASURED_NUMBER": 5.27}
{"COMPOUND": "CC(=O)n1cc(OP(=O)(Oc2ccccc2)Oc2ccccc2)c2ccccc21", "ENDPOINT_NAME": "TGI", "UNITS_TEXT": "µM", "MEASURED_NUMBER": 50.3}
{"COMPOUND": "O=c1[nH]nc(-c2ccccc2)n1/N=C/c1ccccc1Cl", "ENDPOINT_NAME": "TGI", "UNITS_TEXT": "µM", "MEASURED_NUMBER": 60.2}
{"COMPOUND": "O=C1C=CC(=O)c2c(O)c(Br)c(Br)c(O)c21", "ENDPOINT_NAME": "TGI", "UNITS_TEXT": "µM", "MEASURED_NUMBER": 8.19}

Tell me the measured TGI of O=C(N/N=C/c1ccc(O)cc1O)c1cccc(Nc2ccnc(C(F)(F)F)c2)c1 , please.
20.8

* * *

# Test system: IGROV1 ovarian
# TEST_DESCRIPTION: NCI tumour cell line growth inhibition, 48 h
Can you tell me TGI for the items I'm about to list?

{"COMPOUND": "CC(=O)[CH-]C(=O)c1ccccc1.CC(=O)[CH-]C(=O)c1ccccc1.Cc1cc([O-])ccc1Cl.Cc1cc([O-])ccc1Cl.[Ti+4]", "TGI": "> 100 µM"}

Below is a list of compounds. For each, state its recorded TGI.
1. COC(=O)C(COC(=O)/C=C/c1ccc(OC(C)=O)c(OC(C)=O)c1)NC(=O)/C=C/c1ccc(OC(C)=O)c(OC(C)=O)c1 (stereo not drawn)
2. CC(=O)O[C@@]1(C)[C@@H](C)C(=O)O[C@@H]2CCN3CC=C(COC(=O)[C@]1(C)O)[C@H]23
3. CCn1c(-c2nonc2N)nc2c(C#CC(C)(C)O)ncc(OC[C@H]3CCCNC3)c21
4. COc1ccc(NC(C)=O)c(C(O)CCNC(C)=O)c1 (stereo not drawn)

1. > 100 µM
2. > 100 µM
3. 23.2 µM
4. > 100 µM

Below is a list of compounds. For each, state its recorded TGI.
1. NS(=O)(=O)NCCNc1nonc1C(=Nc1ccc(F)c(Br)c1)NO
2. CC(C)Oc1cccc(N2C(=NCCc3c[nH]c4ccccc34)Nc3ccncc3S2(=O)=O)c1
3. Cc1ccc(C(=O)/C(=C\c2ccc([N+](=O)[O-])cc2)S(=O)Cc2ccc(Cl)cc2)cc1 (stereo not drawn)

["> 100 µM", "> 100 µM", "3.45 µM"]

Below is a list of compounds. For each, state its recorded TGI.
1. NS(=O)(=O)CC1CC[CH-]CC1.[Cl-].[Cl-].[Cl-].[Cl-].[Cl-].[Sb+5].c1ccncc1
2. Clc1ccccc1CNc1c2ccccc2nc2ccccc12
3. O=C1OC(=O)C2CCCC3CCCC1C32 (stereo not drawn)
4. CC(NC(=O)c1ccc(NP(=O)(OCc2ccc([N+](=O)[O-])o2)N(C)CCCCCl)cc1)c1ccc(OCC2CCCCC2)c(C(N)=O)c1 (stereo not drawn)
5. CCc1ccc(C(=Nc2ccc(N(C)C(=O)CN3CCN(C)CC3)cc2)c2c(O)[nH]c3ccc(C(=O)OC)cc23)cc1
6. N#C/C(=C\c1ccc(Br)cc1)n1nnc2cc(Cl)c(Cl)cc21

1: > 100 µM; 2: 8.83 µM; 3: > 100 µM; 4: 45.9 µM; 5: 1.11 µM; 6: 4.53 µM

Below is a list of compounds. For each, state its recorded TGI.
1. COc1nc2c(c(=O)n1C)N=C(c1ccccc1)[C@H](C(CC(=O)c1ccccc1)c1ccccc1)C(c1ccccc1)N2 (stereo partly drawn)
2. CC1=NN(c2nc(N)nc(C/C(N)=N/O)n2)C(C)(C)C1
3. N#Cc1cc(S(=O)(=O)Nc2nnc(-c3ccccc3)c(-c3ccccc3)n2)c(SCc2ccccc2)cc1Cl
4. CC(=O)n1cc(OP(=O)(Oc2ccccc2)Oc2ccccc2)c2ccccc21

1. > 100 µM
2. > 100 µM
3. 83.5 µM
4. > 100 µM

* * *

# Tested on: OVCAR-5 ovarian
# TEST_DESCRIPTION: NCI tumour cell line growth inhibition, 48 h; in the data active means GI50 below about 0.43 µM; inactive means the rest
Result category, one only: True = active, False = inactive

Answered cases to consult:
{"COMPOUND": "N#Cc1c(N)nc(N2CCOCC2)c(C#N)c1-c1ccccn1", "GROUP_LABEL": "False"}
{"COMPOUND": "Cc1ccc(NC(=O)CSc2nnc3n(Cc4ccccc4)c(=O)c4c(C)c(C(N)=O)sc4n23)cc1", "GROUP_LABEL": "False"}
{"COMPOUND": "C=C(CO)[C@@H]1CC[C@]2(COC3CCCCO3)CC[C@]3(C)[C@H](CC[C@@H]4[C@@]5(C)C=C(C=O)C(=O)C(C)(C)[C@@H]5CC[C@]43C)[C@@H]12 (some centres undefined)", "GROUP_LABEL": "True"}
{"COMPOUND": "CCN(CC)C(=S)SCN1C(=O)c2ccccc2S1(=O)=O", "GROUP_LABEL": "False"}
{"COMPOUND": "COc1ccc2c(c1)C(=O)/C(=C/c1ccc([N+](=O)[O-])o1)O2", "GROUP_LABEL": "False"}

Give the logged outcome of this assay for the following compound: O=C(NO)[C@@H](Cc1ccccc1)NS(=O)(=O)c1ccc(-c2ccccc2)cc1
False

And COC(=O)c1cc2c3ccccc3[nH]c2c2sccc12 ?
False

And Clc1ccccc1CNc1c2ccccc2nc2ccccc12 ?
False

And C/C(O)=C(\C#N)C(=O)Nc1ccc(C(F)(F)F)cc1 ?
False

And Cc1cc(N2CCOCC2)nc(N(CCCNc2ccnc3cc(Cl)ccc23)Cc2ccco2)n1 ?
False

And CCOC(=O)C1=C(C)N(Cc2ccc(Cl)cc2Cl)C2(O)C=CC(=O)C3=C(O)c4ccccc4C(=O)C312 (centres undefined) ?
False

And CN(C)CCNc1c2ccccc2nc2oc3ccccc3c12 ?
False

And CN(CC(=O)Nc1nc2ccccc2[nH]1)S(=O)(=O)c1ccc(Cl)cc1 ?
False

And C/C(=C\c1cc(C(F)(F)F)n(-c2ccc(N)cc2)n1)[C@@H]1C[C@@H]2O[C@]2(C)CCC[C@H](C)[C@H](O)[C@@H](C)C(=O)C(C)(C)[C@@H](O)CC(=O)O1 ?
True

* * *

Can you tell me TGI for the items I'm about to list?
# Tested on: KM12 colon
# TEST_DESCRIPTION: NCI tumour cell line growth inhibition, 48 h
Where a SMILES comes first, the peptide text is derived from it. [ ]: non-standard residue; d: D form. The star is where a group is joined. dTle = CC(C)(C)[C@@H](N)C(=O)O; 4Abz = Nc1ccc(C(=O)O)cc1; NHOH = ON*

Some entries whose results are on file:
{"MOLECULE": "CCOC(=O)C1=C(C)N(Cc2ccc(Cl)cc2Cl)C2(O)C=CC(=O)C3=C(O)c4ccccc4C(=O)C312 (centres undefined)", "TGI": "16.8 µM"}
{"MOLECULE": "C[C@@H](NC(=O)[C@H](NC(=O)[C@@H]1CCCN1C(=O)CNC(=O)c1ccc(N)cc1)C(C)(C)C)C(=O)NO (H-[4Abz]GP[dTle][dA]-{NHOH})", "TGI": "> 100 µM"}
{"MOLECULE": "O=C(CC(=O)c1cccc2ccccc12)C(=O)NC1C2CC3CC(C2)CC1C3 (centres undefined)", "TGI": "> 100 µM"}

Please turn your attention to the following entry.
Tell me the measured TGI of CCCCCCCCCCCCCCCCCCNc1nc(=O)n(C2CC(O)C(COP(=O)(O)OCC3OC(n4ccc(N)nc4=O)C(O)C3O)O2)cc1F (centres undefined) , please.
> 100 µM

* * *

Can you tell me TGI for the items I'm about to list?
# Tested on: U251 CNS
# TEST_DESCRIPTION: NCI tumour cell line growth inhibition, 48 h
Where a SMILES comes first, the peptide text is derived from it. [ ]: non-standard residue; d: D form. ξ: configuration not given here. ξLac(3-iPr) = CC(C)CC(O)C(=O)O; NMeV = CN[CH](C(=O)O)C(C)C; NMeA = CN[CH](C)C(=O)O; βAla = NCCC(=O)O

{"MOLECULE": "CC(C)C[C@H](NC(=O)[C@H](Cc1ccc(F)cc1)NC(=O)c1ccccn1)B(O)O", "RESULT": "0.106 µM"}
{"MOLECULE": "CC(NC(=O)c1ccc(NP(=O)(OCc2ccc([N+](=O)[O-])o2)N(C)CCCCCl)cc1)c1ccc(OCC2CCCCC2)c(C(N)=O)c1 (centres undefined)", "RESULT": "49.9 µM"}
{"MOLECULE": "O=[N+]([O-])c1cc(C(F)(F)F)ccc1Sc1ccc(C(F)(F)F)cc1[N+](=O)[O-]", "RESULT": "> 100 µM"}
{"MOLECULE": "CC(=O)O[C@H]1[C@@H]2OC(=O)C(CSc3ccccc3)[C@@H]2C[C@H]2O[C@]2(C)CC/C=C(\\C)CCC[C@@H]1C (some centres undefined)", "RESULT": "16.5 µM"}
{"MOLECULE": "OC(c1ccc2c(c1)OCO2)c1ccc2c(c1)OCO2", "RESULT": "> 100 µM"}
{"MOLECULE": "Cc1ccc(NC(=O)CSc2nnc3n(Cc4ccccc4)c(=O)c4c(C)c(C(N)=O)sc4n23)cc1", "RESULT": "52.9 µM"}

Below is a list of molecules. For each, state its recorded TGI.
1. C[N+](C)(C)CC(=O)N/N=C(\C(=O)NC1=C(Cl)C(=O)c2ccccc2C1=O)C(C#N)c1nc(-c2ccc([N+](=O)[O-])cc2)cs1 (centres undefined)
2. CN(C(=O)C1=CCC2(CC1)OCCO2)c1ccccc1I
3. ON[C@H]1C[C@@H](n2cnc3c(NC4CC4)ncnc32)[C@H](O)[C@@H]1O
4. CCC(C)C1NC(=O)C2CCCN2C(=O)C(CC(C)C)OC(=O)CCNC(=O)C(C)N(C)C(=O)C(C(C)C)N(C)C1=O (centres undefined) (cyclo([ξLac(3-iPr)]PI[NMeV][NMeA][βAla]); configuration not given here)
5. Fc1cccc(-n2ccc(-c3ccccc3)nc2=S)c1
6. COc1cc2c(cc1OC)C(=O)C1(C2)[C@H](c2ccccc2)C2C(=O)c3cc(OC)c(OC)cc3C2[C@H]1c1ccccc1 (some centres undefined)
7. CC1(c2ccc(Cl)s2)CC(c2ccc(Cl)s2)=C(C#N)C(=C(C#N)C#N)N1 (centres undefined)
8. O/N=C1/CC2(N3CCOCC3)C3CC/C(=N\O)C2CC1(Cc1ccccc1)C3 (centres undefined)

26.4 µM
> 100 µM
> 100 µM
> 100 µM
> 100 µM
> 100 µM
33.2 µM
> 100 µM
